assay: soluble fraction after stress (log2 fold change); higher = more stays soluble; pooled small domains, quantitative proteomics; settings: stress: 50 degC
attribute.measured: soluble fraction (log2)
In your answer, state the number alone without any accompanying words.

HMTFVHTQIEATKEWIISHPLDKHPAVAVVDSAGSIVIGEVDYISKSIVRLRFTAEFSGKAYL
-0.598
HMTHEAEDLNALRMMVRDPIFSSDEPDLQQLRGAVAHAPQFVDRFKELYNDYQRLAEFVQNSL
-0.769

Q. I'd like to know its soluble fraction (log2). The sequence in question is HMRVELVVVPELRQQLLPEARELANSAGLQLRVRGQSPADETRTIVVTQSPAAGTRVAARSIVLVE
A. -0.539

Q. I'd like to know its soluble fraction (log2). The sequence in question is HMNLTEIGQRIRDRREELGLSQDRLAKLGGLPRVTINQLETGSIGDLGVSKLLNLLDLLGLTLDA
A. -0.108

Q. I'd like to know its soluble fraction (log2). The sequence in question is HMNRPQDLGEPYDGQFREHPEAWAFYAAQSPSYRRSASWWVLGAKQEVTRQRRLAALIDASAQGTRIPALT
A. -1.09

Q. I'd like to know its soluble fraction (log2). The sequence in question is HMVERLVVSPGAGVFAPNKAIANGTRISVGDVLGMVGEQEVRSLFDGVLQSFISVDGERLTAHQPVAWLRT
A. -0.536

Q. I'd like to know its soluble fraction (log2). The sequence in question is HMESNWLTYAKRIQSIADTGMTFAVDDFDKERYQELADISSKMLADLSNIPIGRIENLLGPLGQ
A. -0.75

Q. I'd like to know its soluble fraction (log2). The sequence in question is HMHMSLTEKYKELTDLAVSAGVQNLNVREQDGVLYVDGDASGAVKQQLWDTYGKLDPDYTSGDLVLNI
A. 0.0615

Q. I'd like to know its soluble fraction (log2). The sequence in question is HMGDFLLQVDFPPALLEMLPEGKRQAAIGVLSHDPRPAYQRTPGRVYGLNFAGHNIRFAVSENLLTVLEV
A. -2.08

Q. I'd like to know its soluble fraction (log2). The sequence in question is HMYITGAVIRKLREKNNITQLQLAERLRVSDKTISKWETGKGYPDITLLEPIAKTFSVSVTELISGDI
A. -1.32

Q. I'd like to know its soluble fraction (log2). The sequence in question is HMGSSLLSPKEREVLQLLAGNLSNKQIALAMGVSDETIKWHLRNLFGKLNAGGRKHLIDRARMLGLLAAA
A. -0.6

Q. I'd like to know its soluble fraction (log2). The sequence in question is HMKDITPASEDQLKAITDLMLKVNGEWSDAFFTFISKKFNHQISSPEQLTTFEANTIIDMLRKKAEG
A. 0.192

Q. I'd like to know its soluble fraction (log2). The sequence in question is HMVNPDAPAPLYIVNGKETDKNIALAIKPEDVQDVRIIKNTVALQVYGEKGKNGVVIINTKPGV
A. 0.206

Q. I'd like to know its soluble fraction (log2). The sequence in question is HMNSNSLSFSKFMQEVEAGRVIEVQIKGNDIQGELSDGSKFKTYSPNYPNLVDKLSENKVSIVATPL
A. 0.038
